// data source = patent US20240239788A1

# target-entity: KRAS protein containing G12D mutation (Homo sapiens (Human), UniProt P01116, G12D)
# Sequence (P01116 other isoform, or with tags, fused parts or gaps G12D (already in the parent)): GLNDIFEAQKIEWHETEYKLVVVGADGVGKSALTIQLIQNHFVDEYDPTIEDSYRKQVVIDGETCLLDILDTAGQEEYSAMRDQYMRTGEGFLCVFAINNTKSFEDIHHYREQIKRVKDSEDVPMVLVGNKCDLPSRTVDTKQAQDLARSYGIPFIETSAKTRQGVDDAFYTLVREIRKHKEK
# procedure-summary: SOS-catalyzed nucleotide exchange assay (GNE), TR-FRET
# Assay type: biochemical
# experimental-parameters: biotinylated KRAS G12D, SOS and GTP, 60-minute incubation
Structures can show the parent of a compound that is named as a salt.
Entries and their IC50 values follow.
metric: IC50 (nM)

COCC12CCC(CN(c3nc(OCC4(CN(C)C)CC4)nc4c(F)c(-c5cc(O)cc6ccccc56)c(Cl)cc34)C1)N2 (centres unmarked); 571
Cc1cc(N)nc(-c2c(Cl)cc3c(N4CC5CCC(C4)N5)nc(OC[C@@]45CCCN4[C@H](CO)CC5)nc3c2F)c1C(F)(F)F; 2.04
C[C@@]12CC[C@H](CN(c3nc(OC[C@@]45CCCN4C[C@H](F)C5)nc4c(F)c(-c5cc(O)c(Cl)c6cccc(Cl)c56)c(F)cc34)C1)N2 (single isomer, unassigned) [Ex. 174b]; 1000
CN(C)CC1(COc2nc(N3C[C@H]4CC[C@@](C)(C3)N4)c3nnc(-c4cc(O)cc5ccccc45)cc3n2)CC1; 1020
Cc1cc2[nH]nc(C)c2c(-c2c(F)cc3c(N4CC5CCC(C4)N5)nc(OC[C@@]45CCCN4C[C@H](F)C5)nc3c2F)c1OC(F)(F)F (single isomer, unassigned) [Ex. 232b]; 5.9
C#Cc1cccc2cccc(-c3c(F)cc4c(N5CC6CC[C@@](C)(C5)N6)nc(OC[C@@]56CCCN5C[C@H](F)C6)nc4c3F)c12 (single isomer, unassigned) [Ex. 211b]; 7.41
Cc1cc(-c2c(Cl)cc3c(N4C[C@H]5CC[C@@H](C4)N5)nc(OC[C@@]45CCCN4C[C@H](F)C5)nc3c2F)nc(N)c1OC(F)F; 1310
C[C@]12CC[C@H](CN(c3nc(OCC4(N)CCC4)nc4c(F)c(-c5cc(O)cc6ccccc56)c(F)cc34)C1)N2 [Example 114, TFA]; 794
C[C@]12CCC(CN(c3nc(OCC45CCCN4CC(C(F)F)C5)nc4c(F)c(-c5cc(O)cc6cccc(Cl)c56)c(F)cc34)C1)N2 (single isomer, unassigned) [Ex. 173-1a]; 8.43
Cc1cc2[nH]ncc2c(C2Cc3nc(OCC4(CN5CC[C@@H](F)C5)CC4)nc(N4C[C@H]5CC[C@@](C)(C4)N5)c3C(=O)N2)c1C(F)(F)F (some centres unmarked) [Ex. 98b]; 11100
C[C@]12CCC(CN(c3nc(OC[C@@]45CCCN4C[C@H](F)C5)nc4c(F)c(-c5cc(O)cc6cc(F)cc(Cl)c56)c(F)cc34)C1)N2 (single isomer, unassigned) [Ex. 180a]; 6.48
